Quick reference for TGI among some molecules
tested on: MDA-MB-468 breast; experiment: NCI tumour cell line growth inhibition, 48 h

Example cases with answers are listed next.
Smiles Notation	Metric Name	Result
Cn1cc(C2=C(n3ccc4ccccc43)C(=O)NC2=O)c2ccccc21	TGI	> 25 µM
NS(=O)(=O)c1ccc(N=Nc2c(O)[nH]c3ccc(Cl)cc23)cc1	TGI	> 25 µM

Now for another entry.
Prompt line: Entry "Cc1cccc(-n2cnc3cc(C(=O)N4CCCCC4)ccc32)c1" needs its TGI filled in; supply it.
Response line: > 100 µM
